Tested on: K562
Experiment: Growth inhibition of human K562 cells at 1 uM after 24 hrs by MTT assay relative to control
Type: functional
Details: K562, 24 h, read-out: GI
Record form. Attribute: inhibition of growth at 1 µM. Fill in for each entry.
Hi! Could you send only the number? It should be in %, unit omitted.

[in] Can you look up the measured inhibition of growth at 1 µM of CCOP(=O)(OCC)C(Nc1ccccc1)c1ccc(-c2ccncc2)cc1 (stereo not given) for me?
[out] 0

[in] Similarly, CCOP(=O)(OCC)C(Nc1nc2ccccc2s1)c1ccc(-c2ccncc2)cc1 (stereo not given) ?
[out] 0

[in] What do you have for CCOP(=O)(OCC)C(Nc1ccc(F)c(Cl)c1)c1ccc(-c2ccncc2)cc1 (stereo not given) ?
[out] 26

[in] Request: CCOP(=O)(OCC)C(Nc1nccs1)c1ccc(-c2ccncc2)cc1 (stereo not given)
[out] 0

[in] Request: CCOP(=O)(OCC)C(NCc1cccnc1)c1ccc(-c2ccncc2)cc1 (stereo not given)
[out] 26

* * *

Would you kindly list inhibition of growth at 1 µM for each of these compounds?
Tested on: COLO 205
Experiment: Growth inhibition of human COLO205 cells at 1 uM after 24 hrs by MTT assay relative to control
Assay type: functional
Conditions: COLO 205, 24 h, read-out: GI
Just the number in %, nothing appended.

[in] Find the recorded inhibition of growth at 1 µM belonging to CCOP(=O)(OCC)C(Nc1ccc(F)c(Cl)c1)c1ccc(-c2ccncc2)cc1 (stereo not given) and report it.
[out] 44.5

[in] Same question for CCOP(=O)(OCC)C(NCc1cccnc1)c1ccc(-c2ccncc2)cc1 (stereo not given) please.
[out] 27.6

[in] Would you mind doing CCOP(=O)(OCC)C(Nc1cccc(Br)c1)c1ccc(-c2ccncc2)cc1 (stereo not given) as well?
[out] 31.3

[in] // same read-out, input: CCOP(=O)(OCC)C(Nc1ccccc1)c1ccc(-c2ccncc2)cc1 (stereo not given)
[out] 18.1

[in] Record: CCOP(=O)(OCC)C(Nc1cccc([N+](=O)[O-])c1)c1ccc(-c2ccncc2)cc1 (stereo not given)
[out] 39.5

[in] Lookup CCOP(=O)(OCC)C(Nc1ccncc1)c1ccc(-c2ccncc2)cc1 (stereo not given)
[out] 14

[in] Now give it for CCOP(=O)(OCC)C(Nc1nc2ccccc2s1)c1ccc(-c2ccncc2)cc1 (stereo not given) too.
[out] 36.6

[in] Request: CCOP(=O)(OCC)C(Nc1nccs1)c1ccc(-c2ccncc2)cc1 (stereo not given)
[out] 37.1

[in] And CCOP(=O)(OCC)C(Nc1nc2ccc([N+](=O)[O-])cc2s1)c1ccc(-c2ccncc2)cc1 (stereo not given) ?
[out] 34.4

[in] // next record CCOP(=O)(OCC)C(Nc1ccc(Cl)c([N+](=O)[O-])c1)c1ccc(-c2ccncc2)cc1 (stereo not given)
[out] 35

* * *

Assay: Growth inhibition of human HEK293 cells at 10 uM after 24 hrs by MTT assay relative to control
Assay type: cell-based
Conditions: read-out: GI
Is inhibition at 24 h, 10 µM at least 2%? Then Fulfilled. If not, Not fulfilled.

[in] Given the entry CCOP(=O)(OCC)C(Nc1nc2ccc([N+](=O)[O-])cc2s1)c1ccc(-c2ccncc2)cc1 (stereo not given) , answer whether its inhibition at 24 h, 10 µM meets or surpasses 2%.
[out] Not fulfilled

[in] Another: CCOP(=O)(OCC)C(Nc1nc2ccccc2s1)c1ccc(-c2ccncc2)cc1 (stereo not given)
[out] Fulfilled

[in] Same question for CCOP(=O)(OCC)C(NCc1cccnc1)c1ccc(-c2ccncc2)cc1 (stereo not given) please.
[out] Fulfilled

[in] And what about the molecule CCOP(=O)(OCC)C(Nc1cccc(Br)c1)c1ccc(-c2ccncc2)cc1 (stereo not given) ?
[out] Fulfilled

[in] # repeat for CCOP(=O)(OCC)C(Nc1cccc([N+](=O)[O-])c1)c1ccc(-c2ccncc2)cc1 (stereo not given)
[out] Not fulfilled

Measured values drawn from ChEMBL document CHEMBL1926522 for this set.
